target: G-protein coupled receptor 151 (Homo sapiens); experiment: GPR151 agonism via beta-arrestin recruitment – cell-based, PathHunter beta-arrestin, luminescence, set 2, confirmation (AID 1508608); conditions: GPR151 PathHunter beta-arrestin cells, 90 min, at 11.2 µM, stronger effect = higher value, 100% = signal from added EA reagent;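 further: 0% = plate median of compound wells and 100% = EA reagent high control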
Hit rate of the full screen: of about 2,300 compounds, about 20 (0.9%) were called active. This is one part of a sample in which actives are shown more often than they occur.
Listed here are compounds together with their documented activation.
Provide the reading as a plain figure in %.

Illustrative cases are given below, each with its answer.
{"columns": ["compound", "value kind", "experimental result"],
 "data": [
  ["CC(=O)C1C(c2cccc([N+](=O)[O-])c2)c2c(n[nH]c2C)CC1(C)O (stereo unspecified)", "activation", 0.19],
  ["CCN(CC)S(=O)(=O)c1ccc(-c2csc(=Nc3ccccc3OC)n2CC)cc1", "activation", 28.4],
  ["COc1ccc(CCn2c(-c3ccc(Cl)cc3)csc2=Nc2ccc(F)cc2)cc1OC", "activation", 2.13],
  ["CC(C)C(NS(=O)(=O)c1cccc2nsnc12)C(=O)NC1CCCC1 (stereo unspecified)", "activation", -3.04],
  ["Cc1ccc(Cl)cc1Nc1cc(N2CCOCC2)c2nonc2c1[N+](=O)[O-]", "activation", 3.43],
  ["CNc1nc2c(-c3ccc(Cl)cc3)nnn2c2ccccc12", "activation", 16.9],
  ["Cc1cccc(NCC(=O)N/N=C/c2ccccc2O)c1", "activation", -1.08],
  ["O=c1ccc(=O)n(CN(c2ccccc2)c2ccccc2)[nH]1", "activation", 4.24]
]}

Prompt: Form field: reported activation of CC1=C(C(=O)OCc2ccco2)C(c2ccc(F)cc2)NC(=O)N1 (stereo unspecified)
Response: 3.69

Prompt: Another compound to check: `O=C(CSc1nc(-c2ccccc2)cn1-c1ccccc1)Nc1ccccc1Cl`
Response: 6.36

Prompt: Another compound to check: `CCOc1ccc(/C=N/NC(=O)c2ccccc2OC(C)C)cc1O`
Response: -4.49
